Measured pIC50 by item
- tested system: hTDO2 in human glioblastoma A172 cells (Homo sapiens (Human))
- Sequence (P48775 whole entry): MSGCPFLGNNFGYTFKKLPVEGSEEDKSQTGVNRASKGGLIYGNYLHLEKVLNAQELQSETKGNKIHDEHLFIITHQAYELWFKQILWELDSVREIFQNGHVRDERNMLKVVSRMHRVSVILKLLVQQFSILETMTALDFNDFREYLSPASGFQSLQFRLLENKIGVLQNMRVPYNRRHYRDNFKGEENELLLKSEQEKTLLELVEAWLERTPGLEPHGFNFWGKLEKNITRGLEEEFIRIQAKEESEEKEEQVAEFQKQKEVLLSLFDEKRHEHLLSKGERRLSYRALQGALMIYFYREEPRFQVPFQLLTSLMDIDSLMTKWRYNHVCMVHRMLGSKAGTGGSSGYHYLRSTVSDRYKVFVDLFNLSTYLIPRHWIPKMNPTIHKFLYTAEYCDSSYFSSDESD
- assay text: Cellular assay for TDO2 activity determination in A172 cells
- protocol conditions: overnight incubation, kynurenine absorbance at 480 nm
pIC50: −log10 of the molar value.
readout kind: pIC50

[[record]]
compound_structure = "CNCCCN1CCN(S(=O)(=O)c2ccc(-c3c[nH]c4cc(F)ccc34)cc2)CC1=O"
reading = 5.98

[[record]]
compound_structure = "CS(=O)(=O)c1ccc(-c2c[nH]c3cc(F)ccc23)cc1CCO"
reading = 7.10

[[record]]
compound_structure = "N[C@H]1CN(S(=O)(=O)c2ccc(-c3c[nH]c4cc(F)ccc34)cc2)C[C@@H]1F"
reading = 6.77

[[record]]
compound_structure = "C[C@@H](CO)NS(=O)(=O)c1ccc(-c2c[nH]c3cc(F)ccc23)cc1"
reading = 7.03


====

- tested system: hTDO2 in human glioblastoma A172 cells (Homo sapiens (Human))
- assay text: Cellular assay for TDO2 activity determination in A172 cells
- protocol conditions: overnight incubation, kynurenine absorbance at 480 nm
pIC50: −log10 of the molar value.
readout kind: pIC50

[[record]]
compound = "N#Cc1cc(S(=O)(=O)N2CCNCC2)ccc1-c1c[nH]c2cc(F)ccc12"
reading = 5.43

[[record]]
compound = "O=S(=O)(c1ccc(-c2c[nH]c3cc(F)ccc23)cc1)N1C[C@H](F)C[C@@H]1CO"
reading = 7.01

[[record]]
compound = "O=S(=O)(NCCc1c[nH]nn1)c1ccc(-c2c[nH]c3cc(F)ccc23)cc1"
reading = 6.52

[[record]]
compound = "O=C1CN(S(=O)(=O)c2ccc(-c3c[nH]c4cc(F)ccc34)cc2)CCN1C[C@@H](O)CO"
reading = 6.42

[[record]]
compound = "NC(=O)n1cc(-c2ccc(S(=O)(=O)N3CCNCC3)cc2)c2ccc(F)cc21"
reading = 4.74

[[record]]
compound = "CC(=O)NCCNS(=O)(=O)c1ccc(-c2c[nH]c3cc(F)ccc23)cc1"
reading = 6.74

[[record]]
compound = "NCCNS(=O)(=O)c1cc(O)cc(-c2c[nH]c3cc(F)ccc23)c1"
reading = 6.48

[[record]]
compound = "NS(=O)(=O)c1ccc(-c2c[nH]c3cc(F)ccc23)c(Cl)c1"
reading = 6.57

[[record]]
compound = "CN1CC(CNS(=O)(=O)c2ccc(-c3c[nH]c4cc(F)ccc34)cc2)OCC1=O (centres unmarked)"
reading = 6.59

[[record]]
compound = "O=S(=O)(NC1CNC1)c1ccc(-c2c[nH]c3cc(F)ccc23)cc1"
reading = 6.85

[[record]]
compound = "O=S(=O)(c1ccc(-c2c[nH]c3cc(F)ccc23)cc1)N1CC(CO)C1"
reading = 6.77

[[record]]
compound = "Cc1noc(CNS(=O)(=O)c2ccc(-c3c[nH]c4cc(F)ccc34)cc2)n1"
reading = 6.73

[[record]]
compound = "CN(C)C(=O)n1cc(-c2ccc(S(=O)(=O)N3CCNCC3)cc2)c2ccc(F)cc21"
reading = 5.02

[[record]]
compound = "O=S(=O)(c1ccc(-c2c[nH]c3cc(F)ccc23)cc1)N1C[C@H](F)[C@@H](O)[C@H](O)[C@H]1CO"
reading = 4.04

[[record]]
compound = "O=S(=O)(c1c(F)cc(-c2c[nH]c3cc(F)ccc23)cc1F)N1CCNCC1"
reading = 6.42

[[record]]
compound = "O=C1CCCN1CC1(O)CCCN(S(=O)(=O)c2ccc(-c3c[nH]c4cc(F)ccc34)cc2)C1 (centres unmarked)"
reading = 4.08

[[record]]
compound = "CN(CC(O)c1cccnn1)S(=O)(=O)c1ccc(-c2c[nH]c3cc(F)ccc23)cc1 (centres unmarked)"
reading = 6.81


====

- tested system: human recombinant TDO2 enzyme (Homo sapiens (Human))
- assay text: Assay for TDO2 enzymatic activity determination
- protocol conditions: human recombinant TDO2, L-Trp 1 mM, kynurenine absorbance at 480 nm
Entries and their IC50
readout kind: IC50

[[record]]
compound = "C[C@H](O)CNS(=O)(=O)c1ccc(-c2c[nH]c3cc(F)ccc23)cc1"
readout_kind = "IC50"
reading = "840 nM"

[[record]]
compound = "CS(=O)(=O)CCNS(=O)(=O)c1ccc(-c2c[nH]c3cc(F)ccc23)cc1"
readout_kind = "IC50"
reading = "940 nM"

[[record]]
compound = "O=S(=O)(c1ccc(-c2c[nH]c3cc(F)ccc23)cc1)N1CCOCC1"
readout_kind = "IC50"
reading = "4700 nM"

[[record]]
compound = "O=S1(=O)CCC(NS(=O)(=O)c2ccc(-c3c[nH]c4cc(F)ccc34)cc2)C1 (stereo not shown)"
readout_kind = "IC50"
reading = "930 nM"

[[record]]
compound = "C[C@@H](O)CNS(=O)(=O)c1ccc(-c2c[nH]c3cc(F)ccc23)cc1"
readout_kind = "IC50"
reading = "550 nM"

[[record]]
compound = "CS(=O)(=O)c1ccc(-c2c[nH]c3cc(F)ccc23)cc1"
readout_kind = "IC50"
reading = "1500 nM"

[[record]]
compound = "NCCNS(=O)(=O)c1cc(-c2c[nH]c3cc(F)ccc23)ccc1Cl"
readout_kind = "IC50"
reading = "770 nM"

[[record]]
compound = "NCCNS(=O)(=O)c1cccc(-c2c[nH]c3cc(F)ccc23)c1"
readout_kind = "IC50"
reading = "1800 nM"

[[record]]
compound = "C[C@H](CO)NS(=O)(=O)c1ccc(-c2c[nH]c3cc(F)ccc23)cc1"
readout_kind = "IC50"
reading = "1000 nM"

[[record]]
compound = "CN1CC(CNS(=O)(=O)c2ccc(-c3c[nH]c4cc(F)ccc34)cc2)OCC1=O (stereo not shown)"
readout_kind = "IC50"
reading = "1300 nM"

[[record]]
compound = "N#Cc1cc(-c2c[nH]c3cc(F)ccc23)ccc1S(=O)(=O)N1CCNCC1"
readout_kind = "IC50"
reading = "730 nM"

[[record]]
compound = "O=S(=O)(c1ccc(-c2c[nH]c3cc(F)ccc23)cc1)N1CCNCC1"
readout_kind = "IC50"
reading = "2100 nM"

[[record]]
compound = "O=S(=O)(c1ccc(-c2c[nH]c3cc(F)ccc23)cc1)N1CCC(O)(c2cncnc2)C1 (stereo not shown)"
readout_kind = "IC50"
reading = "120 nM"

[[record]]
compound = "O=C1CN(S(=O)(=O)c2ccc(-c3c[nH]c4cc(F)ccc34)cc2)CCN1"
readout_kind = "IC50"
reading = "930 nM"

[[record]]
compound = "O=S(=O)(c1ccc(-c2c[nH]c3cc(F)ccc23)cc1)N1C[C@@H](O)[C@@H](O)C1"
readout_kind = "IC50"
reading = "530 nM"

[[record]]
compound = "O=S(=O)(c1ccc(-c2c[nH]c3cc(F)ccc23)cc1)N1CC[C@@H](O)C1"
readout_kind = "IC50"
reading = "170 nM"

[[record]]
compound = "O=C1CCN(S(=O)(=O)c2ccc(-c3c[nH]c4cc(F)ccc34)cc2)CCN1"
readout_kind = "IC50"
reading = "2000 nM"

[[record]]
compound = "O=S(=O)(c1cccc(-c2c[nH]c3cc(F)ccc23)c1)N1CCNCC1"
readout_kind = "IC50"
reading = "4400 nM"

[[record]]
compound = "NC(=O)COC1CCN(S(=O)(=O)c2ccc(-c3c[nH]c4cc(F)ccc34)cc2)CC1"
readout_kind = "IC50"
reading = "1900 nM"


====

# IC50 per entry
- tested system: human recombinant TDO2 enzyme (Homo sapiens (Human), UniProt P48775)
- Sequence (P48775 whole entry): as above
- assay text: Assay for TDO2 enzymatic activity determination
- protocol conditions: human recombinant TDO2, L-Trp 1 mM, kynurenine absorbance at 480 nm
readout kind: IC50 (nM)

[[record]]
molecule = "NS(=O)(=O)c1cccc(-c2c[nH]c3cc(F)ccc23)c1 [Example 10]"
reading = 2400

[[record]]
molecule = "N[C@H]1CN(S(=O)(=O)c2ccc(-c3c[nH]c4cc(F)ccc34)cc2)C[C@@H]1F [Example 80]"
reading = 900

[[record]]
molecule = "NC(=O)CCNS(=O)(=O)c1ccc(-c2c[nH]c3cc(F)ccc23)cc1 [Example 26]"
reading = 730

[[record]]
molecule = "O=S(=O)(c1ccc(-c2c[nH]c3cc(F)ccc23)cc1)N1CC[C@H](O)C1 [Example 79]"
reading = 120

[[record]]
molecule = "NC(=O)[C@H]1C[C@@H](NS(=O)(=O)c2ccc(-c3c[nH]c4cc(F)ccc34)cc2)C1 [Example 95]"
reading = 1300

[[record]]
molecule = "NCCNS(=O)(=O)c1ccc(-c2c[nH]c3cc(F)ccc23)cc1 [Example 8]"
reading = 890

[[record]]
molecule = "CNC(=O)CCNS(=O)(=O)c1ccc(-c2c[nH]c3cc(F)ccc23)cc1 [Example 50]"
reading = 960

[[record]]
molecule = "CS(=O)(=O)NCCNS(=O)(=O)c1ccc(-c2c[nH]c3cc(F)ccc23)cc1 [Example 21]"
reading = 740

[[record]]
molecule = "O=S(=O)(NCCn1cncn1)c1ccc(-c2c[nH]c3cc(F)ccc23)cc1 [Example 99]"
reading = 1100

[[record]]
molecule = "NCCNC(=O)c1ccc(-c2c[nH]c3cc(F)ccc23)cc1 [Example 2]"
reading = 1100

[[record]]
molecule = "Cc1cc(-c2c[nH]c3cc(F)ccc23)ccc1S(=O)(=O)N1CCNCC1 [Example 34]"
reading = 520

[[record]]
molecule = "CN(CCS(N)(=O)=O)S(=O)(=O)c1ccc(-c2c[nH]c3cc(F)ccc23)cc1 [Example 98]"
reading = 910

[[record]]
molecule = "O=S(=O)(c1ccc(-c2c[nH]c3cc(F)ccc23)cc1)N1CCN[C@H](CO)C1 [Example 18]"
reading = 1100

[[record]]
molecule = "O=S(=O)(c1c(Cl)cc(-c2c[nH]c3cc(F)ccc23)cc1Cl)N1CCNCC1 [Example 76]"
reading = 470

[[record]]
molecule = "O=C(c1ccc(-c2c[nH]c3cc(F)ccc23)cc1)N1CCNCC1 [Example 3]"
reading = 2100

[[record]]
molecule = "NS(=O)(=O)c1ccc(-c2c[nH]c3cc(F)ccc23)cc1 [Example 6]"
reading = 1000

[[record]]
molecule = "NC(=O)[C@H]1C[C@H](NS(=O)(=O)c2ccc(-c3c[nH]c4cc(F)ccc34)cc2)C1 [Example 97]"
reading = 820

[[record]]
molecule = "O=S(=O)(c1ccc(-c2c[nH]c3cc(F)ccc23)cc1O)N1CCNCC1 [Example 35]"
reading = 420

